test: gradient 5% acetonitrile 3 min, to 50% in 2 min, to 85% in 15 min, held 3 min, 100 µL/min; conditions: column: Zorbax Extend-C18 2.1 x 50 mm; eluents: water / acetonitrile, 0.1% formic acid
Measured Property: RP-LC retention time (s)

Would you please look over these solved cases?
Molecule: CN(C)c1ccc(CNC(=O)C2CCN(c3cncnc3N3CCCC3)CC2)cc1
Unit Label: s
RP-LC retention time: 555

Molecule: COc1cc(Cl)ccc1C(=O)N1CCN(c2ccc(-c3nc(C)c(C)s3)cn2)CC1
Unit Label: s
RP-LC retention time: 950

Molecule: COc1cc(CN2C[C@@H]3C(=O)N(CCCN4CCCC4=O)C(=O)[C@@H]3C2)ccc1OC(C)C
Unit Label: s
RP-LC retention time: 610

Molecule: CNC(=O)c1c(NC(=O)c2ccc(C)cc2)sc2c1CCC2
Unit Label: s
RP-LC retention time: 1070

Molecule: CC(C)CNC(=O)CC1Sc2ncccc2N(CC(C)C)C1=O (centres undefined)
Unit Label: s
RP-LC retention time: 791

[a] O=C(C1CCCN(c2nc3cccnc3s2)C1)N1CCN(c2cccc(Cl)c2)CC1 (centres undefined)
[b] O=C(Cn1cnc2nc(N3CCC(C(=O)NC4CC4)CC3)sc2c1=O)Nc1ccc(F)cc1
q: Record comparison, field RP-LC retention time: mark the lower of a and b . Let me know the label of the one you choose.
a: b

Reference source for all entries: the METLIN SMRT retention time set (Domingo-Almenara et al. 2019)
